System: Lung
assay remarks: Drug uptake in BALB/c mouse lung implanted with mouse 4T1 cells assessed per gram of tissue at 0.18 mg/kg, ip after 72 hrs by HPLC-based fluorescence analysis
Type: ADME, organism-based
conditions used: in vivo
readout name: Drug uptake (ng/g)
Please respond with the number in ng/g and leave the unit unwritten.

Q: Please report Drug uptake for the following compound: CN1CC2C3=N/C(=C(/c4c(F)c(F)c(S[C@@H]5O[C@H](CO)[C@@H](O)[C@H](O)[C@H]5O)c(F)c4F)C4=N/C(=C(/c5c(F)c(F)c(F)c(F)c5F)c5ccc([nH]5)/C(c5c(F)c(F)c(S[C@@H]6O[C@H](CO)[C@@H](O)[C@H](O)[C@H]6O)c(F)c5F)=C5/C=CC(=N5)C3c3c(F)c(F)c(F)c(F)c3F)C=C4)C2C1 (stereo partly specified)
Ans: 7
